# Test system: passive cutaneous anaphylaxis (PCA)
# Test summary: passive cutaneous anaphylaxis (PCA) test in rats, oral
# Format: in vivo
# Condition: Rattus norvegicus, 2 h, 50 mg/kg p.o., 120 min. pretreatment, read-out: % Inhibition In Comparison With Controls
# Excerpt: They can be therefore used in prevention and treatment of bronchial asthma, allergic rhinitis, hay fever, urticaria and dermatosis.
inhibition in vivo at 50 mg/kg: recorded values
Property label: inhibition in vivo at 50 mg/kg (%)

Molecule: O=C(O)c1ccc2oc(-c3cccc(Cl)c3)cc(=O)c2c1
Test system: passive cutaneous anaphylaxis (PCA)
Property label: inhibition in vivo at 50 mg/kg
Recorded result: 2.1

Molecule: O=C(O)c1ccc2oc(C=Cc3ccccc3)cc(=O)c2c1
Test system: passive cutaneous anaphylaxis (PCA)
Property label: inhibition in vivo at 50 mg/kg
Recorded result: 16.6

Molecule: O=C(O)c1ccc2oc(-c3ccccc3)cc(=O)c2c1
Test system: passive cutaneous anaphylaxis (PCA)
Property label: inhibition in vivo at 50 mg/kg
Recorded result: 3.4

Molecule: O=C(O)c1ccc2oc(-c3cnccn3)cc(=O)c2c1
Test system: passive cutaneous anaphylaxis (PCA)
Property label: inhibition in vivo at 50 mg/kg
Recorded result: 26.3

Molecule: CC(C)Oc1ccccc1-c1cc(=O)c2cc(C(=O)O)ccc2o1
Test system: passive cutaneous anaphylaxis (PCA)
Property label: inhibition in vivo at 50 mg/kg
Recorded result: 24.4

Molecule: O=C(O)c1cc(=O)c2c(OCC(O)COc3cccc4oc(C(=O)O)cc(=O)c34)cccc2o1 [DSCG, disodium cromoglycate]
Test system: passive cutaneous anaphylaxis (PCA)
Property label: inhibition in vivo at 50 mg/kg
Recorded result: 2.5

Molecule: O=C(O)c1ccc2oc3ccc(OCCO)cc3c(=O)c2c1 [AH 7725, 2-carboxy-7-hydroxyethoxy-xanthone]
Test system: passive cutaneous anaphylaxis (PCA)
Property label: inhibition in vivo at 50 mg/kg
Recorded result: 3.8

Molecule: O=C(O)c1ccc2oc(-c3ccc(O)cc3)cc(=O)c2c1 [6-carboxy-4'-hydroxy-flavone]
Test system: passive cutaneous anaphylaxis (PCA)
Property label: inhibition in vivo at 50 mg/kg
Recorded result: 3.9

Value source: patent US4083953A
